assayed_system: T1, Recombinant in-house Human FcRn protein (human, UniProt P55899 24-297; P61769 21-119, limits assumed)
T1 construct: also called huFCRN; HuFcRn
T1 sequence (P55899 24-297 limits assumed, chain 1 of 2): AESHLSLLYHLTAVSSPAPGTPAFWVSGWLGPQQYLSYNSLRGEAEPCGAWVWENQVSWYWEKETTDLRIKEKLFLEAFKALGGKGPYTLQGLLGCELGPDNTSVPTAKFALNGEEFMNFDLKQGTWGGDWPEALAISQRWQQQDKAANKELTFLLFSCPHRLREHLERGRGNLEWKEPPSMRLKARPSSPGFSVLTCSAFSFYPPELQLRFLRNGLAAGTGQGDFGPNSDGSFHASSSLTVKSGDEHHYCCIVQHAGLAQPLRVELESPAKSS
T1 sequence (P61769 21-119 limits assumed, chain 2 of 2): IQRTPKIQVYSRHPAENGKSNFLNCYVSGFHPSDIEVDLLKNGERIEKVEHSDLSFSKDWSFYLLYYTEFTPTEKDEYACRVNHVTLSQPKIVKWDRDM
protocol_text: SPR, pH 6
The binders listed here are annotated with their pKd.
# pKd = -log10(concentration in molar units)

{"binder": "Fc Fragment 14 (other, Human IgG1 Fc fragment; substitutions already in the entry) DKTHTCPPCPAPELLGGPSVFLFPPKPKDTLYITREPEVTCVVVDVSHEDPEVKFNWYVDGVEVHNAKTKPREEQYNSTYRVVSVLTVLHQDWLNGKEYKCKVSNKALPAPIEKTISKAKGQPREPQVYTLPPSRDELTKNQVSLTCLVKGFYPSDIAVEWESNGQPENNYKTTPPVLDSDGSFFLYSKLTVDKSRWQQGNVFSCSVLHEALRFHYTQKSLSLSPG", "number": 8.08}
{"binder": "Fc Fragment 11 (other, Human IgG1 Fc fragment; substitutions already in the entry) DKTHTCPPCPAPELLGGPSVFLFPPKPKDTLYITREPEVTCVVVDVSHEDPEVKFNWYVDGVEVHNAKTKPREEQYNSTYRVVSVLTVLHQDWLNGKEYKCKVSNKALPAPIEKTISKAKGQPREPQVYTLPPSRDELTKNQVSLTCLVKGFYPSDIAVEWESNGQPENNYKTTPPVLDSDGSFFLYSKLTVDKSRWQQGNVFSCSVLHEALHFHYTQKSLSLSPG", "number": 8.08}

Now consider the entry below.
Query block: Look up pKd for this binder: Fc Fragment 20 (other, Human IgG1 Fc fragment; substitutions already in the entry) DKTHTCPPCPAPELLGGPSVFLFPPKPKDTLYITREPEVTCVVVDVSHEDPEVKFNWYVDGVEVHNAKTKPREEQYNSTYRVVSVLTVDHKDWLNGKEYKCKVSNKALPAPIEKTISKAKGQPREPQVYTLPPSRDELTKNQVSLTCLVKGFYPSDIAVEWESNGQPENNYKTTPPVLDSDGSFFLYSKLTVDKSRWQQGNVFSCSVMHEALKYHYTQKSLSLSPG
Result block: 7.29
